This listing pairs binders with measured IC50.
Target: T1, human PD-1 on cells (293T cells transfected with human PD-1) (human, UniProt Q15116 25-288)
T1 construct: whole, on cells; Also used as the target for the functional rows, where PD-1 stands on human T cells
T1 sequence (Q15116 25-288): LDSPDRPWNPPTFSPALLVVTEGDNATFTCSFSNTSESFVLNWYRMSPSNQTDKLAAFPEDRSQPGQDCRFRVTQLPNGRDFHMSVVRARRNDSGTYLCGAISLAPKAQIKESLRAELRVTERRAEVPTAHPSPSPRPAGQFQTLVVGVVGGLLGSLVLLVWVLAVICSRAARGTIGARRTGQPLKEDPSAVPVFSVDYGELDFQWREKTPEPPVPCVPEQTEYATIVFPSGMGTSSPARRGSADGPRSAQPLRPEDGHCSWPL
Assay: FACS blockage on hPD-1-293T cells, competitor biotin PD-L2
Procedure: Various concentrations of the testing hybridoma antibodies were added to the cell suspension and incubated at 4° C. for 60 minutes in 96 well plates. […] Plates were washed 3 times, and mouse anti-biotin PE antibody (Biolgend, cat# 409004) was added. Flow cytometric analyses were performed using a FACS Array. The purified hybridoma antibodies were characterized further based on ELISA and FACS analyses.
# unit: µg/mL | format: bare number

7D3 murine anti-PD-1 antibody (antibody, V domains shown, Purified hybridoma antibody; also called 7D3-mIgG1) VH: EVKLVESGGGLVKPGGSLKLSCGASGFTFSSYGMSWVRQTPEKRLEWVATISGGGRDIYYPDSVKGRLTISRDNAKNNLYLQMSSLRSEDTALYYCVRQYYDDWFAYWGQGTLVTVSA VL: DIVLTQSPATLSVTPGDSVSLSCRASQSISNDLHWYQQKSHESPRLLIKYVSQSISGIPSRFSGSGSGTDFTLSINSVETEDFGMYFCQQSDSWPLTFGAGTKLELKR
0.141
22A5 murine anti-PD-1 antibody (antibody, V domains shown, Purified hybridoma antibody; also called 22A5-mIgG1) VH: EVKLVESGGGLVKPGGSLKLSCSASGFSFSYYDMSWVRQTPEKGLEWVATISGGGRNTYFIDSVKGRFTISRDNVKNNLYLLMSSLRSEDTALYYCASPYEGAVDFWGQGTSVTVSS VL: DIVMTQSHKVMSTSVGDRVSITCKASQDVDNAVAWYQQNPGQSPKLLIKWASTRHHGVPDRFTGSGSGTDFTLTISTVQSEDLADFFCQQYSTFPYTFGGGTKLEIKR
0.21

Let us examine a further case.
Q) State the recorded IC50 for this entry: 6E1 murine anti-PD-1 antibody (antibody, V domains shown, Purified hybridoma antibody; also called 6E1-mIgG1) VH: EVKLVESGGGLVKPGGSLKLSCAASGFTFSSYGMSWVRQTPEKRLEWVATISGGGRDTYYLDSVKGRFTISRDNAKNNLYLQMSSLRSEDTALYYCVRQYYDDWFAYWGQGTLVSNSA VL: DIVLTQTPATLSVTPGDSVSLSCRASQSLSNNLHWYQQKSHESPRLLIKYASQSISGIPSRFSGSGSGTDFTLSINSVETEDFGMYFCQQSNSWPLTFGAGTKLEMKR
A) 0.114
